Origin of values: patent US20210363269A1

system: T1, cynomolgus SIRP-α D1 domain (cyno2) (cynomolgus monkey, UniProt Q5TFQ8 30-148 (human entry), limits assumed)
T1 chain: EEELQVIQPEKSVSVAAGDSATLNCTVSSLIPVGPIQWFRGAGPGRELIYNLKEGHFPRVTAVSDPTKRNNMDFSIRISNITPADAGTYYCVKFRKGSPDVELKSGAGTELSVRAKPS
test.description: SPR, Langmuir fit
# key: entry, value: koff
Give your result in s⁻¹ as a bare value.

binder	unit.of.measure	koff
S161 (scFv, V domains shown, scFv-Fc format (VL-linker-VH on human IgG1 Fc)) VH: DVQLVESGGGVVRPGESLRLSCAASGFTFSNFAMTWVRQAPGKGPEWVSLVSVTATTYYADSVKGRFTISRDNSKSTLYLQMNSLRAEDTAVYYCAKITWNNLFDYWGLGTLVTVSS VL: EIVLTQSPGTLSLSPGERATLSCRASQTVGSKLAWYQQKPGQAPRLLIYDSSSRASGIPDRFSGSGSGTDFTLTISSLQSEDSAVYYCQQHNDWPPYTFGGGTKVEIK	s⁻¹	0.00215

I'd like to know its koff. The binder in question is S201 (scFv, V domains shown) VH: DVQLVESGGAVVRPGETLRLSCTASGFTFSSYAMSWVRQAPGKGLEWVSGISASGSDTYYADSVKGRSTISRDNSKNTLYLRMSSLTAEDTAVYYCARETWNHLFDYWGLGTLVTVSS VL: ALTQPASVSANPGETVKITCSGGGTSSYYGWYQQKSPGSAPVTLIHSDDKRPSDIPSRFSGSASGSTATLTITGVQVEDEAVYYCGGYDYTTYVNTFGAGTTLTVL
0.000522
